This collection of values is drawn from patent US20260151494A1.

Target under test: T1, human apical domain of CD71 (human, UniProt P02786 189-383, limits assumed)
T1 construct: domain: apical domain
T1 sequence (P02786 189-383 limits assumed): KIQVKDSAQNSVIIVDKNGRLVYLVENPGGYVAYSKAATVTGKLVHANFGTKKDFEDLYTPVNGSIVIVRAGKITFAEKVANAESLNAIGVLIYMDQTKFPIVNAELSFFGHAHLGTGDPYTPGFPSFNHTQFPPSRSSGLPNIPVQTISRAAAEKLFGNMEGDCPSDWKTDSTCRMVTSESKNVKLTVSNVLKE
Assay notes: primary ELISA; signal over HSA control
Parameter measured: Apical domain:HSA (ratio)
The figure you give is taken to be in ratio; do not add the unit.

Previously resolved entries follow.
# Binder, Endpoint value
measured = [
    ("CD71-binding FN3 domain SEQ ID NO 349 (designed binder) MLPAPKNLVVSRVTEDSARLSWTAPDAAFDSFFIGYLEPQPPGEAIELYVPGSERSYDLTGLKPGTEYNVTIQGVKGGFPSEPLIAHFTT", 23),
    ("CD71-binding FN3 domain SEQ ID NO 372 (designed binder) MLPAPKNLVVSRVTEDSARLSWTAPDAAFDSFFIGYLEPQPPGEAINLLVPGSERSYDLTGLKPGTEYNVTIQGVKGGFPSLPLLAEFTT", 205),
    ("CD71-binding FN3 domain SEQ ID NO 391 (designed binder) MLPAPKNLIVSRVTEDSARLSWTAPDAAFDSFFIGYLEPQPPGEAISLYVPGSERSYDLTGLKPGTEYNVTIQGVKGGFPSDPLQAIFTT", 163),
]

Then this binder:
Query: Apical domain:HSA; subject: CD71-binding FN3 domain SEQ ID NO 360 (designed binder) MLPAPKNLVVSRVTEDSARLSWTAPDAAFDSFFIGYLEPQPPGEAISLYVPGSERSYDLTGLKPGTEYNVTIQGVKGGFPSHPLLAVFTT
144
